B1: Pistol ribozyme (parent)
chain: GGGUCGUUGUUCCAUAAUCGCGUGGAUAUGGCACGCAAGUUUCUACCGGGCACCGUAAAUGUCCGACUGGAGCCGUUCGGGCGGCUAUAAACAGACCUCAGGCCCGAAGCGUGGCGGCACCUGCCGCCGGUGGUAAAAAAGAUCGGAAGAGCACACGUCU

Variants of: B1
Experiment: aptazyme ON/OFF ratio, guanine; higher = stronger switching; co-transcriptional cleavage with and without guanine
observed.property: aptazyme ON/OFF ratio

>>> print(df.to_string())
                    sequence_change  observed
 0            U7A U8C G9C U10A C13G      1.07
 1                        U11G C13U      1.06
 2               G9C U10C U11C C12G      1.04
 3  U7C U8C G9C U10C U11G C12U C13A      1.09
 4                         U7A U11C      1.29
 5                 U7G U8C G9C U10C      1.92
 6           U8G G9C U10A C12G C13U      1.17
 7               G9U U10G U11A C13A      1.13
 8       U7A U8A G9C U10C U11G C12A      1.07
 9               U7G U10A U11A C13A      1.14
10      U7A U8A U10A U11A C12U C13G      1.24
11  U7A U8A G9C U10A U11A C12G C13A      1.18
12      U7A U8C U10C U11C C12A C13G      1.16
13       U7G U8C G9C U11G C12U C13A       1.3
14  U7C U8C G9U U10G U11G C12G C13G      1.06
15  U7C U8C G9U U10C U11G C12U C13G      1.19
16                              U8C      3.02
17            U7C U8C G9C U10G C12U       1.2
18          U8A U10C U11A C12U C13G      1.23
19       U7G U8C G9U U10C U11A C12G      1.98
20           U8G G9U U10C U11G C12G      1.25
21      U7C G9C U10G U11C C12G C13U      1.12

Provenance of the data: the RNAGym collection of RNA variant scans (doi:10.1021/acssynbio.7b00057)
